Listing: maximal absorbance value of selected binders
target: tetanus neurotoxin (TeNT), authentic tetanus holotoxin (Clostridium tetani, UniProt P04958 2-1315); experiment: ELISA: directly coated TeNT, anti-his6 PO
Sequence (P04958 2-457 limits assumed, chain 1 of 2): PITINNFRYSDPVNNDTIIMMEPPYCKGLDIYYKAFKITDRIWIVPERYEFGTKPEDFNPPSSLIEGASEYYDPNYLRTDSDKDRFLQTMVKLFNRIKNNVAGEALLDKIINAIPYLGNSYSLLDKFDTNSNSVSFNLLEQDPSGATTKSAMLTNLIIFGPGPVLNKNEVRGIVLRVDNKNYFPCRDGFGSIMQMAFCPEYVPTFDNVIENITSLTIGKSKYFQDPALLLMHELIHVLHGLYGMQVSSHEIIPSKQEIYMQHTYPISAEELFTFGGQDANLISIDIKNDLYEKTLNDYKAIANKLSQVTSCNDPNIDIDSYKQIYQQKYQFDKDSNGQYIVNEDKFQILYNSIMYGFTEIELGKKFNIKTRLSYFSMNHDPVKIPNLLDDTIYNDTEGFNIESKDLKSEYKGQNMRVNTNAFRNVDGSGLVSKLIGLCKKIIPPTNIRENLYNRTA
Sequence (P04958 458-1315 limits assumed, chain 2 of 2): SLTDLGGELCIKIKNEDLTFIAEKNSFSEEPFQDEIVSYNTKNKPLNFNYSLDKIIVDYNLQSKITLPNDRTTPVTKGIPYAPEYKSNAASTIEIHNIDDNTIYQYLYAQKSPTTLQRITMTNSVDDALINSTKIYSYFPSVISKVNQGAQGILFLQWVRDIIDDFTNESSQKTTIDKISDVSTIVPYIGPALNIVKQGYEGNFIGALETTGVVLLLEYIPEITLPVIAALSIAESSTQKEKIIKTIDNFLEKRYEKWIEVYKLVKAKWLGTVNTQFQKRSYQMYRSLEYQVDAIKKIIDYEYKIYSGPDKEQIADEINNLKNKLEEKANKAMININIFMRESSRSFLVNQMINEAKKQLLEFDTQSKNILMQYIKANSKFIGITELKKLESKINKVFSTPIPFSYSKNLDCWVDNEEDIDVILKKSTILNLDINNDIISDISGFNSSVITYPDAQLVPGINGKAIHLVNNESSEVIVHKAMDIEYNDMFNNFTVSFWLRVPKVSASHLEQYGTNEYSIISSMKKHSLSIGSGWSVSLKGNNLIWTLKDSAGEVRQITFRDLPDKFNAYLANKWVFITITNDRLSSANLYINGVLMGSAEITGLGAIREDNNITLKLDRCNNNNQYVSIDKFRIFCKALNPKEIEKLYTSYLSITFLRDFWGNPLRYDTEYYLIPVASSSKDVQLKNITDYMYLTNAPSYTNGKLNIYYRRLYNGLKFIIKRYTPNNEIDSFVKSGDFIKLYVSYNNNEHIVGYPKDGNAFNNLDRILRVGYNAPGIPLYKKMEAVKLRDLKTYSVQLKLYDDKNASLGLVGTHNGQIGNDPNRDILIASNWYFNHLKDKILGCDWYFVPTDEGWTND
Write it as a number; the unit A450 goes unstated.

SVT06-GS2-SVG13M4-H6 (bispecific antibody) QVQLQESGGGSVQAGGSLRLSCTASELSYDDYTIAWFRRAAGEGRVEDGEGVASITKSYDRAYDNKINYGHSVKGRFTISRDNAKNTVYLQMTDLLPSDTAVYYCALDITPPGGVGASLTEGFLFDYWGQGTQVTVSSGGGGSGGGSEVQLVESGGGLVQPGGSLRLSCEASGFTFDDYGMSWVRQAPGKGLEWVSSLTPNGGSTYYADSVKGRFTISRDNAKNTLYLQMNSLKPEDTALYYCAKNSYYGAMDYWGQGTQVTVSSHHHHHH	1.44
SVT15-3FW4M-GS2-SVG06M4-H6 (bispecific antibody) QVQLQESGGGLVQTGGSLRLSCRASGRAFANYHFGWFRQAPGKDREFVASISWKGGSTYYANFALGRFTSSVDRAESSVYLQMSGLTPEDTATYYCAAHDGGDWNYHTGMDYWGQGTQVTVSSGGGGSGGGSEVQLVESGGALVQPGGSLRLSCAASGFPFSAYDMTWVRQAPGQGLEWVSTIHKSGGITTYADSVKGRFTISRDNAKNTLYLQMNNLESEDTAVYYCAKALRAHNSDYVGRNALGSWGQGTQVTVSSHHHHHH	0.37
SVT06-GS2-SVA12M2-H6 (bispecific antibody) QVQLQESGGGSVQAGGSLRLSCTASELSYDDYTIAWFRRAAGEGRVEDGEGVASITKSYDRAYDNKINYGHSVKGRFTISRDNAKNTVYLQMTDLLPSDTAVYYCALDITPPGGVGASLTEGFLFDYWGQGTQVTVSSGGGGSGGGSEVQLVESGGGLVQAGGSLRLSCAASGRTFSYYPMAWFRQAPGQEREFVAAIIGADTTYYADSLKGRFTISRDNAKNMVYLQMNSLKPEDTAVYYCAARNTYWSDVYYREGQYTNWGQGTQVTVSSHHHHHH	1.59

With those in mind, consider the next binder.
Request: Suppose we examine the binder SVT16L (VHH) VHH: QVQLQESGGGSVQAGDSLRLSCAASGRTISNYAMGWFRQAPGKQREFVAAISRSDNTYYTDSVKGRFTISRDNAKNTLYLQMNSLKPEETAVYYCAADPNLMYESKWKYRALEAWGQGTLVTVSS ; what maximal absorbance value value has been reported?
Response: 1.56
